Provide the reported IC50 of each item.
target: Recombinant STAT6 protein (STAT6 (W123-T658)) (Homo sapiens, UniProt P42226); construct: Recombinant STAT6 protein (STAT6 (W123-T658)); assay: STAT6 Fluorescence Polarization (FP) Assay; type: binding; details: STAT6 (W123-T658) 250 nM, probe 5-FAM-Ap[…]-NH2 2 nM, 45-minute incubation; read-out: STAT6 (FP assay IC50 class)
Sequence (P42226 123-658): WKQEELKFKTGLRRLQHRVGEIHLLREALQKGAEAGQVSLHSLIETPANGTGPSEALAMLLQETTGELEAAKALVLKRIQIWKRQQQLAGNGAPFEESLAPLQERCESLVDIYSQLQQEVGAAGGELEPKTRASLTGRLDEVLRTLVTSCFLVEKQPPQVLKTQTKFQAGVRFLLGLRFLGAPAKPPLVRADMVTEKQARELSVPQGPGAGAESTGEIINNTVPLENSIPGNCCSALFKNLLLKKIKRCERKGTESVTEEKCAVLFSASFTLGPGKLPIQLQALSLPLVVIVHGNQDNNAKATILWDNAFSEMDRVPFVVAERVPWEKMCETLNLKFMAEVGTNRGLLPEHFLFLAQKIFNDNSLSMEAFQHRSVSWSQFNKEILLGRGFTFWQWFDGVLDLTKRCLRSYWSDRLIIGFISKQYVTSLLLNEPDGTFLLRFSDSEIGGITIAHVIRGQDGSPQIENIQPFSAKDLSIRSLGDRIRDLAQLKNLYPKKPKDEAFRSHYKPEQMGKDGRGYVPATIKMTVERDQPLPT

COc1c(C2CN(C(=O)[C@@H]3CC[C@@H]4CCC[C@H](NC(=O)c5cc6cc(C(F)P(=O)(O)O)ccc6s5)C(=O)N43)C2)ccnc1F (some centres unmarked) [Compound 925]    3 to 30 µM
O=C(N[C@H]1CCCC[C@H]2CC[C@@H](C(=O)N3CC(c4ccccc4)CC34CC4)N2C1=O)c1ccc2ccc(CP(=O)(O)O)cc2c1 (some centres unmarked) [Compound 884]    0.3 to 3 µM
O=C(N[C@H]1CCCC[C@H]2CC[C@@H](C(=O)N3CC(c4ccc(=O)[nH]c4)C3)N2C1=O)c1cc2cc(C(F)(F)P(=O)(O)O)ccc2s1 [Compound 816]    3 to 30 µM
Cn1ccnc1C1CN(C(=O)[C@@H]2CC[C@@H]3CCC[C@H](NC(=O)c4cc5cc(C(F)(F)P(=O)(O)O)ccc5s4)C(=O)N32)C1 [Compound 799]    0.3 to 3 µM

Provide reported IC50 for each item, in the same order as listed.
1. CC(NC(=O)[C@@H]1CC[C@@H]2CCCC[C@H](NC(=O)c3cc4cc(C(F)(F)P(=O)(O)O)ccc4s3)C(=O)N21)c1n[nH]c2ncccc12 (some centres unmarked) [Compound 1107]
2. COCCN(C)c1ccncc1C1CN(C(=O)[C@@H]2CC[C@@H]3CCC[C@H](NC(=O)c4cc5cc([C@@H](F)P(=O)(O)O)ccc5s4)C(=O)N32)C1 [Compound 855]

[A]
1: 0.3 to 3 µM; 2: 3 to 30 µM

Quick request: IC50 for each listed item, please.
1. N#C[C@H]1CN(C(=O)[C@@H]2CCC[C@@H]3CCCC[C@H](NC(=O)c4cc5cc(C(F)P(=O)(O)O)ccc5s4)C(=O)N32)C[C@@H]1c1ccccc1 (relative stereo) [Compound 552]
2. O=C(N[C@H]1CCC[C@H]2CC[C@@H](C(=O)NCc3ccc4[nH]cnc4c3)N2C1=O)c1cc2cc(C(F)(F)P(=O)(O)O)ccc2s1 [Compound 1115]
3. O=C(N[C@H]1CCC[C@H]2CC[C@@H](C(=O)N3CC(c4cncc(F)c4)C3)N2C1=O)c1cc2cc(C(F)P(=O)(O)O)ccc2s1 (some centres unmarked) [Compound 596]
4. COCC(NC(=O)[C@@H]1CC[C@@H]2CCCC[C@H](NC(=O)c3cc4cc(C(F)(F)P(=O)(O)O)ccc4s3)C(=O)N21)c1c[nH]c2ncccc12 (some centres unmarked) [Compound 1121]
5. COc1ccncc1C1CN(C(=O)[C@@H]2CC[C@@H]3C[C@@H](C(C)C)CC[C@H](NC(=O)c4cc5cc(C(F)P(=O)(O)O)ccc5s4)C(=O)N32)C1 (some centres unmarked) [Compound 246]

[A]
["≤ 0.3 µM", "0.3 to 3 µM", "3 to 30 µM", "3 to 30 µM", "3 to 30 µM"]
